test system: KCC2 pThr906; test: Phosphorylation immunoblot in KCC2-transfected HEK293 cells; assay type: cell-based, human; conditions: hypotonic low Cl- conditions, concentration inhibiting phosphorylation
assay.metric: KCC2 pThr906 (μM) hypo

Here are 5 compounds together with their reported answers.
Cc1cc(C(C#N)c2ccc(Cl)cc2)c(Cl)cc1NC(=O)c1ccccc1N (stereo not shown) :: 10, 10 μM
Cc1cc(C(C#N)c2ccc(Cl)cc2)c(Cl)cc1NC(=O)c1ccccc1S (stereo not shown) :: 10, 10 μM
Cc1cc(C(C#N)c2ccc(Cl)cc2)c(Cl)cc1NC(=O)c1cc(F)ccc1O (stereo not shown) :: 10, 10 μM
Cc1cc(C(C#N)c2ccc(Cl)cc2)c(Cl)cc1NC(=O)c1cccc(F)c1O (stereo not shown) :: 10, 10 μM
Cc1cc(C(C#N)c2ccc(Cl)cc2)c(Cl)cc1NC(=O)c1ccccc1[N+](=O)[O-] (stereo not shown) :: —

Challenge: Would you mind telling me what KCC2 pThr906 (μM) hypo value was observed for Cc1cc(C(C#N)c2ccc(Cl)cc2)c(Cl)cc1NC(=O)c1cc(Cl)cc(Cl)c1O (stereo not shown) ?
Response given: 10, 10 μM

Challenge: Another: COc1ccc(Cl)cc1C(=O)Nc1cc(Cl)c(C(C#N)c2ccc(Cl)cc2)cc1C (stereo not shown)
Response given: —

====

tested on: KCC2 pThr1007; assay: Phosphorylation immunoblot in KCC2-transfected HEK293 cells; assay type: cell-based, human; conditions: isotonic conditions, concentration inhibiting phosphorylation
assay.metric: KCC2 pThr1007 (μM) Iso

Cc1cc(C(C#N)c2ccc(Cl)cc2)c(Cl)cc1NC(=O)c1cc(F)ccc1O (stereo not shown) [Compound 1g] :: 3, 3 μM
Cc1cc(C(C#N)c2ccc(Cl)cc2)c(Cl)cc1NC(=O)c1cc(Cl)cc(Cl)c1O (stereo not shown) [Compound 1f] :: 3, 3 μM
Cc1cc(C(C#N)c2ccc(Cl)cc2)c(Cl)cc1NC(=O)c1ccccc1O (stereo not shown) [Compound 1b] :: 3, 3 μM
Cc1cc(C(C#N)c2ccc(Cl)cc2)c(Cl)cc1NC(=O)c1cccc(F)c1O (stereo not shown) [Compound 1h] :: 3, 3 μM
Cc1cc(C(C#N)c2ccc(Cl)cc2)c(Cl)cc1NC(=O)c1ccccc1[N+](=O)[O-] (stereo not shown) [Compound 1e] :: —
Cc1cc(C(C#N)c2ccc(Cl)cc2)c(Cl)cc1NC(=O)c1cc(Cl)ccc1O (stereo not shown) [ZT-1a] :: 1 μM

Challenge: Would you mind telling me what KCC2 pThr1007 (μM) Iso value was observed for Cc1cc(C(C#N)c2ccc(Cl)cc2)c(Cl)cc1NC(=O)c1ccccc1N (stereo not shown) [Compound 1d] ?
Response given: 3, 3 μM

Challenge: Another: Cc1cc(C(C#N)c2ccc(Cl)cc2)c(Cl)cc1NC(=O)c1ccccc1S (stereo not shown) [Compound 1c]
Response given: 3, 3 μM

Challenge: Another: COc1ccc(Cl)cc1C(=O)Nc1cc(Cl)c(C(C#N)c2ccc(Cl)cc2)cc1C (stereo not shown) [Compound 1j]
Response given: —

Challenge: Another: Cc1cc(C(C#N)c2ccc(Cl)cc2)c(Cl)cc1NC(=O)c1cccc(O)c1O (stereo not shown) [Compound 1i]
Response given: —

====

tested on: KCC2 pThr906; assay: Phosphorylation immunoblot in KCC2-transfected HEK293 cells; type: cell-based, human; design: key: “—” showed no inhibition of phosphorylation of SPAK/NKCC1/KC22; conditions: hypotonic low Cl- conditions, concentration inhibiting phosphorylation
assay.metric: KCC2 pThr906 (μM) hypo

Cc1cc(C(C#N)c2ccc(Cl)cc2)c(Cl)cc1NC(=O)c1cccc(O)c1O (stereo not drawn) [Compound 1i] :: —
Cc1cc(C(C#N)c2ccc(Cl)cc2)c(Cl)cc1NC(=O)c1cc(Cl)ccc1O (stereo not drawn) [ZT-1a] :: 3, 3 μM
Cc1cc(C(C#N)c2ccc(Cl)cc2)c(Cl)cc1NC(=O)c1ccccc1O (stereo not drawn) [Compound 1b] :: 10, 10 μM
